test system: SF-295 CNS; experiment: NCI tumour cell line growth inhibition, 48 h
Parameter: TGI. Scope: all listed entries.
experimental.readout: TGI

> print(dat)
                                   compound  experimental.result
1  CCOc1ccc2nc(NC(NC(=O)c3cccnc3)(C(F)(F)F)C(F)(F)F)sc2c1             > 100 µM
2  CC12CCC(C(Nc3ccccn3)C1=O)C2(C)C (stereo not given)             > 100 µM
3  Cc1ccc(S(=O)(=O)NC(=O)NC(Cc2ccc(O)c(O)c2)C(=O)O)cc1 (stereo not given)             > 100 µM
4  CNCCCNCCCN1C(=O)c2ccc3c4c(ccc(c24)C1=O)C(=O)N(CCCNCc1ccccc1OC)C3=O              2.39 µM
5          c1ccc(C2=NCCc3cc4c(cc32)OCO4)cc1             > 100 µM

* * *

tested on: SR leukemia; assay: NCI tumour cell line growth inhibition, 48 h; in the data active means GI50 below about 0.43 µM; inactive means the rest
Classes used: label 1 (active), label 0 (inactive)

compound	measured.on	group
C=C1C[C@@]2(C)C(CC[C@]3(C)C2CC=C2C4CC(C)(C)C[C@@H](OC(=O)/C(C)=C\C)[C@]4(C(=O)O)CC[C@]23C)C(C)(C)C1=O (stereo partly drawn)	SR leukemia	label 0
CNCCCNCCCN1C(=O)c2ccc3c4c(ccc(c24)C1=O)C(=O)N(CCCNCc1ccccc1OC)C3=O	SR leukemia	label 1
O=C(Nc1cccc(-n2cc(-c3ccncc3)c(-c3ccc(O)c(Cl)c3)n2)c1)Nc1cccc(C(F)(F)F)c1	SR leukemia	label 0
CCCN(CCSSCCNc1nc(N(C)O)nc(N(C)O)n1)c1nc(N(C)O)nc(N(C)O)n1	SR leukemia	label 0
C[C@H](N)C(=O)N1C[C@H](CCCB(O)O)[C@](N)(C(=O)O)C1	SR leukemia	label 0
O=C1CS/C(=N\S(=O)(=O)c2ccc(N3N=C4c5ccccc5CC4C3c3ccc(Cl)cc3)cc2)N1c1ccccc1 (stereo not drawn)	SR leukemia	label 0
CCSc1nnc(-c2ccc3ccccc3c2O)n1-c1ccc(Cl)cc1	SR leukemia	label 0
CCOC(=O)c1cc(C(=O)c2cc(OC)c(OC)c(OC)c2)n2ccccc12	SR leukemia	label 1

* * *

Parameter: GI50. Scope: all listed entries.
system: TK-10 renal; test: NCI tumour cell line growth inhibition, 48 h
experimental.readout: GI50

> print(dat)
                                   compound  experimental.result
1  CNCCCNCCCN1C(=O)c2ccc3c4c(ccc(c24)C1=O)C(=O)N(CCCNCc1ccccc1OC)C3=O              2580 nM
2  O=C(Nc1ccccc1)Nc1cccc(Oc2nnc(Cl)c3ccccc23)c1              6080 nM
3  Clc1ccc(Nc2ccnc(NCCCNc3ccnc4cc(Cl)ccc34)n2)cc1              1940 nM
4  OCC(O)C(O)C(O)/C=N/Nc1nc2ccccc2nc1-c1ccccc1 (stereo not given)          > 100000 nM
5  C=C1C(=O)O[C@H]2[C@H]1CC/C(COC(=O)c1ccccc1)=C\CC[C@@]1(C)O[C@@H]21              2030 nM

* * *

system: HL-60(TB) leukemia; test: NCI tumour cell line growth inhibition, 48 h
experimental.readout: TGI

compound	experimental.result
CCOC(=O)C(C(=O)OCC)=C1NC2(c3ccccc3Nc3ccc(C)cc32)C(C(=O)OC)S1 (stereo unspecified)	> 100 µM
Cc1[nH]nc2c1N=C(c1ccccc1Cl)c1cc([N+](=O)[O-])ccc1N2	> 25 µM
CC(=O)NC(Cc1ccc(OP(=O)(OCc2ccc([N+](=O)[O-])o2)N(C)CCCCCl)cc1)C(=O)NC(C)c1ccc(OCC2CCCCC2)c(C(N)=O)c1 (stereo unspecified)	6.83 µM
COc1ccc(N(C)c2c3ccccc3nc3[nH]c4ccccc4c23)cc1	0.466 µM
COc1cc2c(cn1)[nH]c1ccccc12	> 100 µM
Cc1nnc(-n2c(O)cc(=O)n(-c3ccccc3)c2=S)nc1/C=C/c1ccc(N(C)C)cc1	7.1 µM
O=c1c2ccccc2[nH]c2cc(O)cc(O)c12	> 100 µM
O=C1c2ccccc2C(=O)c2c(O)ccc(O)c21	> 100 µM
C=CCN(c1cc(OC)c2[nH]cc(C)c2c1[N+](=O)[O-])S(C)(=O)=O	> 100 µM
NS(=O)(=O)c1ccc(NC(=O)c2cccc3cc4ccccc4nc23)cc1	> 100 µM
C=C1C[C@@]2(C)C(CC[C@]3(C)C2CC=C2C4CC(C)(C)C[C@@H](OC(=O)/C(C)=C\C)[C@]4(C(=O)O)CC[C@]23C)C(C)(C)C1=O (stereo partly specified)	7.08 µM
Cc1ccc(Oc2ccc([N+](=O)[O-])cc2[N+](=O)[O-])c(C)c1	65.2 µM
COc1ccc(-c2csc(NC(=O)c3cc(O)c(O)c(O)c3)n2)cc1	23.9 µM
N#Cc1nc(CCC(c2nc(C#N)c(N)o2)N2C(=O)c3ccccc3C2=O)oc1N (stereo unspecified)	> 100 µM
S=C(Nc1ccccn1)Nc1ccccc1Cl	> 100 µM
CS(=O)(=O)OCCN(CCOS(C)(=O)=O)c1ccc(C=O)cc1	35.4 µM
Cc1c(N=Cc2ccc(N(CCC#N)CCC#N)cc2)c(=O)n(-c2ccccc2)n1C	> 100 µM
CC(C)C(=O)/C=C/c1ccc(Cl)c(Cl)c1	47 µM
CC(=O)OC1Oc2ccccc2-c2oc(=O)c(-c3cc4ccccc4oc3=O)cc21 (stereo unspecified)	> 100 µM
COc1cc(/C=C2\C(=O)Nc3cccc(Cl)c32)cc(OC)c1OC	> 100 µM
COc1cc(/C=C(\OC(C)=O)c2ccc3c(c2)OCO3)cc(OC)c1OC	> 100 µM

* * *

tested on: HCC-2998 colon; assay: NCI tumour cell line growth inhibition, 48 h; in the data active = GI50 below about 0.43 µM; inactive = the rest
Classes used: active, inactive

molecule	group
CCCN(CCSSCCNc1nc(N(C)O)nc(N(C)O)n1)c1nc(N(C)O)nc(N(C)O)n1	inactive
CC(C)Nc1ncc2cc(Oc3ccc(F)cc3F)c(=O)n(C)c2n1	inactive
NC(=O)c1ccc2nc3c(n2c1)C(=O)C(=O)c1ccccc1-3	inactive
COc1cc2c(cc1OCCCCOc1ccc(-c3nc4ccccc4s3)cc1)N=C[C@@H]1CCCN1C2=O	inactive
N#C/C(=C\c1ccc(Br)cc1)n1nnc2ccccc21	inactive
CC(=O)OC1Oc2ccccc2-c2oc(=O)c(-c3cc4ccccc4oc3=O)cc21 (stereo unspecified)	inactive
CCOC(=O)c1cc(C(=O)c2cc(OC)c(OC)c(OC)c2)n2ccccc12	active
Oc1ccc(C#CCOc2ccccc2)cc1CNCCN(Cc1ccccn1)Cc1ccccn1	inactive
Cc1cc2cn3c4cccnc4[nH]c(=O)c3c2cc1C	inactive
C=C1C[C@@]2(C)C(CC[C@]3(C)C2CC=C2C4CC(C)(C)C[C@@H](OC(=O)/C(C)=C\C)[C@]4(C(=O)O)CC[C@]23C)C(C)(C)C1=O (stereo partly specified)	inactive
N#Cc1ccc2c(c1)C(=O)c1c-2n(CCCN)c(=O)c2cc([N+](=O)[O-])ccc12	active

* * *

tested on: OVCAR-3 ovarian; assay: NCI tumour cell line growth inhibition, 48 h
Parameter: TGI. Scope: all listed entries.

compound	TGI
COC(=O)c1ccccc1C1CN=NC12Cc1cccc(C)c1C2=O (stereo unspecified)	82.1 µM
CCSc1nnc(-c2ccc3ccccc3c2O)n1-c1ccc(Cl)cc1	> 100 µM
C1COCCOCCOCCOCCO1.CC(=O)[CH-]C(C)=O.CC(=O)[CH-]C(C)=O.CC(=O)[CH-]C(C)=O.[V]	32.3 µM
N#C/C(=C\c1ccc(C(O)P(=O)(O)O)cc1)C(N)=O (stereo unspecified)	> 100 µM
Cc1c(N=Cc2ccc(N(CCC#N)CCC#N)cc2)c(=O)n(-c2ccccc2)n1C	> 100 µM
CC1(O)CCC2(C#N)CCC1C2O (stereo unspecified)	> 100 µM
CCOC(=O)c1cc(C(=O)c2cc(OC)c(OC)c(OC)c2)n2ccccc12	4.11 µM
CS(=O)(=O)OCCN(CCOS(C)(=O)=O)c1ccc(C=O)cc1	28.5 µM
Nc1nc(-c2cccc([N+](=O)[O-])c2)cc(-c2cc(-c3cccc([N+](=O)[O-])c3)nc(N)n2)n1	> 100 µM
Cc1cccc(C)c1NC(=O)CCc1n[nH]c(=S)o1	> 100 µM
CC(C)Nc1ncc2cc(Oc3ccc(F)cc3F)c(=O)n(C)c2n1	> 25 µM
CCOP(=O)(OCC)C1=NC=CC=CC1n1c(-c2ccccc2)nn(CC)c1=O (stereo unspecified)	> 100 µM
COc1cc2c(cc1OC)-c1cc3cc(OC)c(OC)cc3c(=O)n1CC2	> 100 µM
O=c1c2ccccc2[nH]c2cc(O)cc(O)c12	> 100 µM
CN1CCN(c2ccc(C(=O)Nc3cc(-c4cccc(NS(=O)(=O)c5ccccc5)c4)[nH]n3)cc2)CC1	25.8 µM
CCN(CC)C(=O)N1CN(c2ccccc2)C2(CCN(CCCSc3ccc(F)cc3)CC2)C1=O	18.6 µM
Cc1ccc(S(=O)(=O)NC(=O)NC(Cc2ccc(O)c(O)c2)C(=O)O)cc1 (stereo unspecified)	> 100 µM
Cc1nc(C(N)=S)sc1C(=O)C/C(=N/N)C(=O)Nc1ccc(Cl)cc1	> 100 µM
Cc1ccc(Oc2ccc([N+](=O)[O-])cc2[N+](=O)[O-])c(C)c1	> 100 µM
CC(=O)O[C@H]1[C@@H](OC(C)=O)C(C)(C)/C=C/[C@H](C)C(=O)[C@@]2(OC(C)=O)C[C@@](C)(OC(C)=O)[C@H](OC(C)=O)[C@@H]2[C@H]2OC(=O)CC[C@@]2(OC(=O)c2ccccc2)[C@@H]1OCC(C)C	> 100 µM
Oc1ccc(O)c(CNc2ccccc2)c1	19.3 µM
